Assay: NCI Yeast Anticancer Drug Screen. Data for the rad50 strain (AID 155);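 also: 0% = growth of vehicle-only cultures of the same strain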
Conditions: S. cerevisiae rad50 strain growth inhibition; at 100.0 µM; hits give high values
The panel holds about 79,000 compounds, 15% with a hit somewhere; the sample as a whole holds those more often.
Measured growth inhibition accompanies every entry in the list below.
Response body: numeric value in %, unit text excluded.

// below: answered compounds
[
  {
    "Compound": "CNC(=S)N/N=C(/C)CCC/C(C)=N/NC(=S)NC",
    "Readout number": 92
  },
  {
    "Compound": "CNC(=O)OCc1c(COC(=O)NC)c(C)n(-c2ccc(Br)cc2)c1C",
    "Readout number": 91
  },
  {
    "Compound": "O=C1C2=C(c3ccccc31)C(c1ccccc1)N1C(=O)CSC1=N2 (stereo not given)",
    "Readout number": 74
  },
  {
    "Compound": "O=C(Cc1ccccc1)NN1C(=O)C(Cl)C1c1cc(Br)cc(Br)c1O (stereo not given)",
    "Readout number": 84
  },
  {
    "Compound": "S=C(NCc1ccccn1)N/N=C/c1ccccn1",
    "Readout number": 98
  },
  {
    "Compound": "C/C(=N/NC(=S)Nc1ccccc1C)c1ccccn1",
    "Readout number": 5
  },
  {
    "Compound": "CCN(CC)CCNc1ccc(C)c2sc3ccc(O)cc3c(=O)c12",
    "Readout number": 99
  },
  {
    "Compound": "CCC1(O)C(=O)OCc2c1cc1n(c2=O)Cc2cc3c(N)cccc3nc2-1 (stereo not given)",
    "Readout number": 60
  },
  {
    "Compound": "NC(N)=NC(N)=Nc1ccccc1 (tested in a mixture with another compound)",
    "Readout number": 55
  }
]

Which value of growth inhibition has been reported for O=C1C(/C=C/c2ccc(Cl)cc2)=NNC2N1N=C1NC(=O)C3(NN12)c1ccccc1-c1ccccc13 (stereo not given) in the records? 12

----------
Measured growth inhibition accompanies every entry in the list below.
Experiment: NCI Yeast Anticancer Drug Screen. Data for the mlh1 strain (AID 171);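 also: 0% = growth of vehicle-treated control cultures of the same strain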
Details: S. cerevisiae mlh1 strain growth inhibition; at 11.0 µM; hits give high values
This is part of a sample that, as a whole, favours compounds with a hit. Of some 79,000 tested, about 15% had one in any assay.
Response body: numeric value in %, unit text excluded.

[
  {
    "Compound": "COc1ccc2cc3c4cc5c(cc4cc[n+]3cc2c1OC)OCO5",
    "Property name": "growth inhibition",
    "Readout number": 53
  },
  {
    "Compound": "O=c1cccccc1[O-].O=c1cccccc1[O-].O=c1cccccc1[O-].[Eu+3]",
    "Property name": "growth inhibition",
    "Readout number": 13
  },
  {
    "Compound": "CN(C)CCCn1c2c3ccccc3ccc2c2oc(=O)c3ccccc3c21",
    "Property name": "growth inhibition",
    "Readout number": 53
  },
  {
    "Compound": "CCCCN(CCCC)c1ccc(N=Nc2ccc(S(=O)(=O)O)cc2)cc1",
    "Property name": "growth inhibition",
    "Readout number": 82
  },
  {
    "Compound": "CN(C)N=Nc1ccc(N(C)C)cc1",
    "Property name": "growth inhibition",
    "Readout number": 1
  }
]

Which value of growth inhibition has been reported for `CN(N=O)C(=O)Nc1ccc(C(=O)O)cc1` in the records? -1

Item: CC1C(c2ccccc2)SC(=N)N1C (centres undefined) 0

Item: `O=c1c2ccccc2nc(-c2cccc([N+](=O)[O-])c2)n1O` 71

Item: CCC[CH2][Ge]([CH2]CCC)([CH2]CCC)[O]C(=O)C(O)c1ccccc1 (centres undefined) 14

Item: `COC(=O)/C(C#N)=C\NC(=S)C(N)=S` 98

----------
Assay: NCI Yeast Anticancer Drug Screen. Data for the mec2-1 strain (AID 157)
Conditions: S. cerevisiae mec2-1 strain, at 1.2 µM, hits give high values
Compounds without any hit were thinned out: in the full panel of roughly 79,000, 15% have a hit. The source made the active and inactive calls. No stated cut-off is given here; in the data, active means growth inhibition above about 70%; inactive means the rest.
Measured growth inhibition accompanies every entry in the list below.

// below: answered molecules
[
  {
    "Molecule": "CSc1nc(-c2ccccc2)nc(=[N+]2CCOCC2)s1",
    "Result": "1% (inactive)"
  },
  {
    "Molecule": "CCN(CC)CCNc1ccc(C)c2sc3ccc(O)cc3c(=O)c12",
    "Result": "-1% (inactive)"
  },
  {
    "Molecule": "CN(C)/C(=N/C(=S)Nc1ccccc1)SCc1ccccc1",
    "Result": "-5% (inactive)"
  },
  {
    "Molecule": "COC(=O)C(Cl)(Cl)N=Nc1c(Cl)cc(Cl)c(C)c1Cl",
    "Result": "-40% (inactive)"
  },
  {
    "Molecule": "O=P(C(=S)Nc1c(Cl)cccc1Cl)(c1ccccc1)c1ccccc1",
    "Result": "5% (inactive)"
  }
]

Which value of growth inhibition has been reported for C/C1=C/C2OC(=O)C3(C)C2C(CC2(C)OC1=CC2=O)OC3(O)C(C)C (stereo not given) in the records? -16% (inactive)

Item: `Fc1ccc(Nc2ccc3ccccc3c2)cc1` -1% (inactive)

Item: `N#[N+]c1c([O-])c2ccccc2c2ccccc12` 0% (inactive)

Item: `O=C1Nc2ccc(Br)cc2C1=Nc1ccc(Cl)cc1` -68% (inactive)

Item: `CCCCS/C(=C(/C#N)C(N)=O)c1cc2c([nH]1)CCCC2` -8% (inactive)

Item: `COc1ccc(C(=O)/C=C\c2ccc(Cl)c(Cl)c2)cc1` -7% (inactive)

Item: `COc1cc([N+](=O)[O-])c2ncccc2c1Br` 2% (inactive)

Item: `CC(=O)/C=C/c1cccc([N+](=O)[O-])c1` 0% (inactive)

Item: `O=C(NCCCCN(CCCNC(=O)C(F)(F)F)Cc1ccccc1)C(F)(F)F` 14% (inactive)

----------
Measured growth inhibition accompanies every entry in the list below.
Assay: NCI Yeast Anticancer Drug Screen. Data for the cln2 rad14 strain (AID 165);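 also: 0% = growth equal to vehicle treated cultures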
Conditions: S. cerevisiae cln2 rad14 strain, at 50.0 µM, hits give high values
Compounds without any hit were thinned out: in the full panel of roughly 79,000, 15% have a hit.
Response body: numeric value in %, unit text excluded.

// below: answered molecules
[
  {
    "Molecule": "Nc1ccc(/C=C/c2ccc3cccnc3c2)cc1",
    "Unit string": "%",
    "growth inhibition": -6.75
  },
  {
    "Molecule": "O/N=c1/ccn(O)c2ccccc12",
    "Unit string": "%",
    "growth inhibition": 98.8
  }
]

Which value of growth inhibition has been reported for `CC(C)C(c1ccccc1)c1ccccc1` in the records? 16

Item: `Cc1ccc(NC(Nc2ccc(C)cc2C)=C(C(Cl)=C(Cl)Cl)[N+](=O)[O-])c(C)c1` 98.7

Item: `O=C(O)C(=Cc1ccc(-c2ccccc2)cc1)C(=O)O` 23.7

Item: OC(CC(O)(C(F)(F)F)C(F)(F)F)c1ccc(C(O)CC(O)(C(F)(F)F)C(F)(F)F)cc1 (stereo not given) 99.2

Item: CCN1CCC(O)(c2ccc(Oc3ccc(C)cc3)cc2)C(C(=O)c2ccc(Oc3ccc(C)cc3)cc2)C1 (stereo not given) 88.2

Item: O=NC1c2cccc3cccc(c23)C1N=O (stereo not given) 80.5

Item: C=C(C(=O)OC)N1C(=O)CC(C)C1=O (stereo not given) 47.4

Item: `CC(C)OC(=O)NNc1cccc(Cl)c1` 97.8

----------
Measured growth inhibition accompanies every entry in the list below.
Assay: NCI Yeast Anticancer Drug Screen. Data for the bub3 strain (AID 167)
Conditions: S. cerevisiae bub3 mutant strain, at 1.2 µM, hits give high values
About 79,000 compounds went through this panel and 15% of them were active in at least one assay; those are over-represented in the sample as a whole.
Response body: numeric value in %, unit text excluded.

[
  {
    "Compound": "CN(C)CCCn1c2c3ccccc3ccc2c2oc(=O)c3ccccc3c21",
    "growth inhibition (%)": 20
  },
  {
    "Compound": "CCCCOc1ccc2nc(C)cc(N=[N+]=[N-])c2c1",
    "growth inhibition (%)": 11
  },
  {
    "Compound": "O=C(CN(c1ccccc1)c1ccccc1)n1nnc2ccccc21",
    "growth inhibition (%)": -21
  },
  {
    "Compound": "COC(=O)/C(C#N)=C\\NC(=S)C(N)=S",
    "growth inhibition (%)": 24
  }
]

Which value of growth inhibition has been reported for `NC(N)=NS(=O)(=O)c1ccc(Nc2c3ccccc3nc3c(C(=O)NC(CO)(CO)CO)cccc23)cc1` in the records? -1

Item: `Cc1cccc(/C=N/NC(=S)NC2CCCCC2)n1` -6

Item: `O=C1c2ccccc2C(=O)c2c(O)c(NCCNCCO)cc(O)c21` 13
